Molecular target: T1, Human GDF15 Fc (human, UniProt Q99988 195-308, limits assumed, biotinylated (EZ-Link Sulfo-NHS-Biotinylation Kit) in the SPR assay)
T1 construct: also called human GDF15-Fc fusion; biotinylated Human GDF15 Fc; not shown: Fc part
T1 sequence: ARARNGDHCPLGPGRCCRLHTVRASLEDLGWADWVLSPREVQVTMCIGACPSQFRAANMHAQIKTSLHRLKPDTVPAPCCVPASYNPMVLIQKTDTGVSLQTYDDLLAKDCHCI
Assay: BLI Octet; IgG on sensor, 100 nM antigen (avid)

{"binder": "GDF15 antibody agent Clone K, IgG (antibody, V domains shown) VH: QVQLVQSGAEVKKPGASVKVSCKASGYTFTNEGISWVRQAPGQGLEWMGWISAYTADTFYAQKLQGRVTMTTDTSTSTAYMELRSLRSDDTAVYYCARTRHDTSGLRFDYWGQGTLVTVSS VL: DIQMTQSPSSVSASVGDRVTITCRASQGIDSWLAWYQQKPGKAPKLLIYAASSLQSGVPSRFSGSGSGTDFTLTISSLQPEDFATYYCQQVHSFPITFGGGTKVEIKR", "Kd": "0.271 nM"}
